Molecular target: T1, cyno Nectin-4 on cells (cyno, UniProt A0A2K5WES1 32-510)
T1 construct: whole, on cells; also called HEK293 cells expressing cyno Nectin-4; cyno Nectin-4 cells
T1 sequence: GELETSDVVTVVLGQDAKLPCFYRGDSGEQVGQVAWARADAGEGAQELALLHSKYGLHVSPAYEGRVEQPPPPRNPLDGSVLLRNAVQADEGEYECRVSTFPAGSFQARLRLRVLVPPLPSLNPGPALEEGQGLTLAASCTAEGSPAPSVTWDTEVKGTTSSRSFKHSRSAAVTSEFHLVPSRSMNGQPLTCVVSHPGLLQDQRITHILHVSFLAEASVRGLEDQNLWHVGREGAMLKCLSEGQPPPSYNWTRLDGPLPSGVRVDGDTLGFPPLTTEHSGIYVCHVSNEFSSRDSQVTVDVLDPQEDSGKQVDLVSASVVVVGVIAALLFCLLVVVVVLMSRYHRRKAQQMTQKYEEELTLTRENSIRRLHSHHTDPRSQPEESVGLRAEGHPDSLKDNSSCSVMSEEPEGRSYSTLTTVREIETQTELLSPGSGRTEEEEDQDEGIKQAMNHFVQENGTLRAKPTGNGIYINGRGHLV
Test: FACS, HEK293 cells expressing cyno Nectin-4
Measured attribute: Ratio (pH 7.4/6.0) of EC50
Give your answer as a number; write no unit.

INSERT INTO assay_data (binder, endpoint_value) VALUES
  ('BAP-143-07-03-12 (antibody, V domains shown, Used as a conjugate with a linker payload (CAB ADC)) VH: EVQLVESGGGLVQPGGSLRLSCAASGFTFSSYNMNWVRQAPGKGLEWVSYISSSSSTIYYADSVKGRFTISRDNAKNSLSLQMNSLRDEDTAVYYCARAYYYGMDKWGQGTTVTVSS VL: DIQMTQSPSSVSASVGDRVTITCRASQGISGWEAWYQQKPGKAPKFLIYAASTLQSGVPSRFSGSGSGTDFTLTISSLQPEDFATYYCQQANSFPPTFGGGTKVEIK', 1.8);

Req: Find the recorded Ratio (pH 7.4/6.0) of EC50 belonging to BAP-143-06-33-03 (antibody, V domains shown, Used as a conjugate with a linker payload (CAB ADC)) VH: QVQLVQSGAEVKKPGASVKVSCKASGFTFSSYNMNWVRQARGQRLEWIGYISSSSSTIYYADSVKGRFTISRDNSKNTLYLQMNSLRAEDTAVYYCARAYYYGMDKWGQGTLVTVSS VL: DIQMTQSPSSVSASVGDRVTITCRASQGISGWLAWYQQKPGKAPKFLIYAASTLQSGVPSRFSGSGSGTDFTLTISSLQPEDFATYYCQQANSEPPTFGGGTKVEIK and report it.
Resp: 2.7
